Origin of the recorded values: patent US20250026813A1

target: RBD domain of the spike protein of SARS-CoV-2 virus (Acro Biosystems SPD-C52H3) (SARS-CoV-2, UniProt P0DTC2 319-537)
Hi there, I'd appreciate the recorded IC50 for every entry that follows.
Hi! Could you send only the number? It should be in nM, unit omitted.

Problem: Which value of IC50 has been reported for IMPI-042 (antibody, V domains shown) VH: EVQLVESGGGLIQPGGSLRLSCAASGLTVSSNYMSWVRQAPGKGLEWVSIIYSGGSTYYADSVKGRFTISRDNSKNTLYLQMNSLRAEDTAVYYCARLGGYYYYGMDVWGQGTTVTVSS VL: DIQMTQSPSSLSASVGERVTITCQASQDIRNYLNWYQKKPGKAPKLLIYDSSNLETGVPSRFSGGGSGTDFTFTISSLQPEDIATYYCQQYDNLPITFGQGTRLEIK in the records?
Result: 5.54

Problem: Given the entry IMPI-021 (antibody, V domains shown) VH: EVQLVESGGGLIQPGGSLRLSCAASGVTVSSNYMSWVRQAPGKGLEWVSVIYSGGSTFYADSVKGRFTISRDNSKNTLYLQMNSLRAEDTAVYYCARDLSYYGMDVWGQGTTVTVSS VL: DIQLTQSPSFLSASVGDRVTITCWASQGISSYLAWYQQKPGKAPKLLIYAASTLQSGVPSKFSGSGSGTEFTLTISSLQPEDFATYYCQQLNSYPCSFGQGTKLEIK , report its measured IC50.
Result: 4.87
